Assay: Intracellular stability of optimal epitopes, immature DC extracts
Assay type: in vitro ADME, Human
Details: human, cells or culture medium, pH 7.4; 1nmol peptide, 15μg immature DC whole cell extract, degradation buffer pH7.4, 37°C, aliquots 0, 10, 30, 60 minutes; RP-HPLC, one-phase exponential decay; read-out: half-life at pH7.4
reportedEndpoint: half-life (min)
One number for each entry, in min.

Requested read-out: half-life. Entry: CC[C@H](C)[C@H](NC(=O)[C@@H](NC(=O)[C@H](CCC(=O)O)NC(=O)[C@@H]1CCCN1C(=O)[C@H](CO)NC(=O)[C@H](Cc1ccccc1)NC(=O)[C@H](C)NC(=O)[C@@H](N)CCCCN)C(C)C)C(=O)N1CCC[C@H]1C(=O)N[C@@H](CCSC)C(=O)N[C@@H](Cc1ccccc1)C(=O)O 20
